Each recorded value in this set is attributed to patent US20250236611A1.

Target: UniProt P52333
Sequence (P52333 1-1124): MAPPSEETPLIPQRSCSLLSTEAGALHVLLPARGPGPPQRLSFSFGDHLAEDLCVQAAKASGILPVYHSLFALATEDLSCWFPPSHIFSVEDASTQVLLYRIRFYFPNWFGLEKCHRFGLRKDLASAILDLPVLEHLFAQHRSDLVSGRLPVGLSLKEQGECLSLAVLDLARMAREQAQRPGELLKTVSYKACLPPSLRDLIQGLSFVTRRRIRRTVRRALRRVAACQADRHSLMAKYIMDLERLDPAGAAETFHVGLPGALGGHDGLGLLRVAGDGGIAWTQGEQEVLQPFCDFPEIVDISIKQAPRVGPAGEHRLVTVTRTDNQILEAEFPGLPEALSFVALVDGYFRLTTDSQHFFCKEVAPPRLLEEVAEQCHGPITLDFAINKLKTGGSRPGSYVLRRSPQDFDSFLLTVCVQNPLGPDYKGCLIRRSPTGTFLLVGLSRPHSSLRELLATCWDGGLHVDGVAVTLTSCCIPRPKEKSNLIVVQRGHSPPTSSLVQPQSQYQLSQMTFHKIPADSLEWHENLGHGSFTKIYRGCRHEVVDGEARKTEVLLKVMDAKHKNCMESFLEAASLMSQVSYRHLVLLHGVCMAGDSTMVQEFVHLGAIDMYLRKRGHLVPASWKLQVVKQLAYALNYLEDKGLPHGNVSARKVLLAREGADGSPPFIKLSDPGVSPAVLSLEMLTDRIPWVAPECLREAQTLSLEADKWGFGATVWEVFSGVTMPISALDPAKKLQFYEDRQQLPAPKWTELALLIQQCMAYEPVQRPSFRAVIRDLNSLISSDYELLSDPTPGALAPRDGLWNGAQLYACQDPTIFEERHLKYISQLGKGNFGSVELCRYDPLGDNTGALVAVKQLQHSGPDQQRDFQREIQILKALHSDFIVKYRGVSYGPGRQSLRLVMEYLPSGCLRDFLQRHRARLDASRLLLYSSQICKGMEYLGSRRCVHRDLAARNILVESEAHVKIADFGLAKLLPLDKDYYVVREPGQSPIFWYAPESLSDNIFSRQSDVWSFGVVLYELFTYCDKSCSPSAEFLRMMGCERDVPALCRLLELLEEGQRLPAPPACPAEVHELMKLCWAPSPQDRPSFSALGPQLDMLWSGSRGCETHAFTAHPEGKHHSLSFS
Assay: JAK assay (KINASE-GLO luminescent kinase assay), JAK3
Format: biochemical
Settings: 10 nM JAK enzyme, 800 nM Abl peptide, room temperature 75 min
The entries below come with measured IC50 values attached.

The following compounds have reported results that may help.
{"Compound": "Cc1cnc(Nc2ccc(CNC(=O)[C@H](C)N)cc2)nc1-c1cnn(CC2(CF)CC2)c1 [C[C@H](N)C(═O)NCC1═CC═C(NC2═NC]", "IC50": "< 100 nM"}
{"Compound": "Cc1cnc(Nc2cn(C)nn2)nc1-c1cnn(CC2(CF)CC2)c1 [C[N]1C═C(NC2═NC(═C(C)C═N2)C3═C[N]]", "IC50": "< 1000 nM"}
{"Compound": "COc1cnc(Nc2ccc(C3(O)COC3)cc2)nc1-c1cnn(CC2(CF)CC2)c1", "IC50": "< 100 nM"}

Q: // IC50 lookup, key: Cc1cc(Nc2ncc(C)c(-c3cnn(CC4(CF)CC4)c3)n2)ccc1N1CCN(C)CC1
Ans: < 10 nM

----------
Target: JAK1 (Homo sapiens, UniProt P23458)
Sequence (P23458 whole entry): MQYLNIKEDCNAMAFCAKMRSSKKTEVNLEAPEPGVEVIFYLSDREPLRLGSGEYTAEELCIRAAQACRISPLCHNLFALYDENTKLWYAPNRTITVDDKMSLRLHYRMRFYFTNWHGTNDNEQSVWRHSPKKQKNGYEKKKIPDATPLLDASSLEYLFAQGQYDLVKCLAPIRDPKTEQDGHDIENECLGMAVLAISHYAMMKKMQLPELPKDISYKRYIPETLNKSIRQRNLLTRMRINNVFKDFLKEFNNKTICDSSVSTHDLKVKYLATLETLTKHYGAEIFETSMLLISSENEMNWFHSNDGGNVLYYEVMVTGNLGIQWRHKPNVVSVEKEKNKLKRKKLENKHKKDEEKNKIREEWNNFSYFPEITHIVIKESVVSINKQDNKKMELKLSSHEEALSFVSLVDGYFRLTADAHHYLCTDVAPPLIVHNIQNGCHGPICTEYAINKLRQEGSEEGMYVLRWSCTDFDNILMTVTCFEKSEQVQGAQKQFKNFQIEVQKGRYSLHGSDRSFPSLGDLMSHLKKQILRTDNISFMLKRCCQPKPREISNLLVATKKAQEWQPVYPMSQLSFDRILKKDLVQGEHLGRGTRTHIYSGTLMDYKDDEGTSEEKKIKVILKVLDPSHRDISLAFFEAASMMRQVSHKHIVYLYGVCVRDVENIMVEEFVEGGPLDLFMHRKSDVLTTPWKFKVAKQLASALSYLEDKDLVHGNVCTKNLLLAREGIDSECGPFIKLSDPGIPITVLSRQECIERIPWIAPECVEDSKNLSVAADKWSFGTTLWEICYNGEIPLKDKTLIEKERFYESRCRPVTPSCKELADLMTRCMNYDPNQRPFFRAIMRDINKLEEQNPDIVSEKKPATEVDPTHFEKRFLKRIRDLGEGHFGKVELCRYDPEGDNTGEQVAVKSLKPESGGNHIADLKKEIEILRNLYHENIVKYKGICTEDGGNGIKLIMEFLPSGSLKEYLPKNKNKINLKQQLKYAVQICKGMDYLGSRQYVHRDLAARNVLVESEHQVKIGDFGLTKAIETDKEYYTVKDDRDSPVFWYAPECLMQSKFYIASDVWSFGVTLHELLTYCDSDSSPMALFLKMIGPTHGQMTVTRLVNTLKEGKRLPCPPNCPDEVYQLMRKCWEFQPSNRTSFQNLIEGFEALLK
Assay: JAK assay (KINASE-GLO luminescent kinase assay), JAK1
Assay type: biochemical
Conditions: 10 nM JAK enzyme, 800 nM Abl peptide, room temperature 75 min
The entries below come with measured IC50 values attached.

These solved cases illustrate the format of a correct answer.
{"Compound": "Cc1cnc(Nc2cc(CO)ns2)nc1-c1cnn(CC2(CF)CC2)c1 [CC1═C(N═C(NC2═CC(═NS2)CO)N═C1)C3═C[N]]", "Value observed": "< 10 nM"}
{"Compound": "CC(C)(C)OC(=O)N1CCN(c2ccc(Nc3ncc(Cl)c(-c4cnn(CCC#N)c4)n3)cc2)CC1", "Value observed": "< 100 nM"}
{"Compound": "Cc1cncc(Nc2ncc(C)c(-c3cnn(CC4(CF)CCC4)c3)n2)c1", "Value observed": "< 100 nM"}
{"Compound": "COCCOc1ccc(Nc2ncc(C)c(-c3cnn(CC4(CF)CC4)c3)n2)cc1", "Value observed": "< 100 nM"}
{"Compound": "CC(C)(C)OC(=O)N1CC(CF)(Cn2cc(-c3nc(Nc4ccc(C(N)=O)cc4)ncc3Cl)cn2)C1 [CC(C)(C)OC(═O)N1CC(CF)(C1)C[N]2C═C]", "Value observed": "< 100 nM"}
{"Compound": "Cc1cnc(Nc2cc(COC(=O)CCN3CCOCC3)ns2)nc1-c1cnn(CC2(CF)CC2)c1", "Value observed": "< 100 nM"}

Q: Fill blank: measured IC50 of the compound COc1cnc(Nc2ccc(C3(O)COC3)cc2)nc1-c1cnn(CC2(CF)CC2)c1 is ____.
Ans: < 1000 nM

Q: Entry under review: Cc1cnc(Nc2cccc(CCO)c2)nc1-c1cnn(CC2(CF)CC2)c1 [CC1═C(N═C(NC2═CC(═CC═C2)CCO)N═C1)C3═C[N]] . Reported IC50?
Ans: < 10 nM

Q: // IC50 lookup, key: N#CCCn1cc(-c2nc(Nc3ccc(N4CCOCC4)c(F)c3)ncc2Cl)cn1
Ans: < 10 nM

Q: Requested read-out: IC50. Entry: Cc1cnc(Nc2cc(C(=O)O)ns2)nc1-c1cnn(CC2(CF)CC2)c1
Ans: < 100 nM

Q: I am curious: what IC50 value has been reported for Cc1cnc(Nc2ccc(CCN(C)C)cc2)nc1-c1cnn(CC2(CF)CC2)c1 ?
Ans: < 1000 nM

Q: If you can, please state the reported IC50 value of NC(=O)CCn1cc(-c2nc(NC3CCNCC3(F)F)ncc2Cl)cn1 (centres unmarked) [NC(═O)CC[N]1C═C(C═N1)C2═C] .
Ans: > 50000 nM

Q: Fill blank: measured IC50 of the compound Cc1cnc(Nc2cccc(C(=O)N(C)C)c2)nc1-c1cnn(CC2(CF)CC2)c1 is ____.
Ans: < 100 nM

Q: What does the data say about its IC50? Entry: CC(C)(C)OC(=O)N1CC(CO)(Cn2cc(-c3nc(Nc4ccc(C(N)=O)cc4)ncc3Cl)cn2)C1 [CC(C)(C)OC(═O)N1CC(CO)(C1)C[N]2C═C]
Ans: < 1000 nM

----------
This listing pairs molecules with measured IC50.
Molecular target: JAK1 (Homo sapiens)
Assay: JAK assay (KINASE-GLO luminescent kinase assay), JAK1
Format: biochemical
Conditions: 10 nM JAK enzyme, 800 nM Abl peptide, room temperature 75 min

{"Molecule": "C=CCNc1ncc(C)c(-c2cnn(CCC#N)c2)n1 [CC1═C(N═C(NCC═C)N═C1)C2═C[N]]", "IC50": "< 100000 nM"}

Q: Tell me reported IC50 for CC(C)(C)OC(=O)N1CC(C#N)(Cn2cc(-c3nc(Nc4ccc(C(N)=O)cc4)ncc3Cl)cn2)C1 [CC(C)(C)OC(═O)N1CC(C1)(C[N]2C═C] , tested with JAK1 (Homo sapiens).
Ans: < 100 nM

Q: API: value(readout=IC50, system=JAK1 (Homo sapiens)) for record N#CCCn1cc(-c2nc(Nc3cccc(C(=O)O)c3)ncc2Cl)cn1
Ans: < 1000 nM

Q: What is its IC50 for JAK1 (Homo sapiens)? Entry: Cc1cnc(Nc2cc(CN(C)C)ns2)nc1-c1cnn(CC2(CF)CC2)c1
Ans: < 100 nM

Q: Please tell me: IC50 of Clc1cnc(NC23CC(C2)C3)nc1-c1cnn(Cc2cccs2)c1 [ClC1═C(N═C(NC23CC(C2)C3)N═C1)C4═C[N]] , system JAK1 (Homo sapiens)?
Ans: > 50000 nM

Q: Report IC50 for N#CCCn1cc(-c2nc(Nc3cccc(CN4CC(F)C4)c3)ncc2Cl)cn1 tested on JAK1 (Homo sapiens).
Ans: < 100 nM

Q: Form field - read-out: IC50; system: JAK1 (Homo sapiens); submitted item: CNC1(Cn2cc(-c3nc(Nc4cc(C)ns4)ncc3Cl)cn2)CC1 [CNC1(CC1)C[N]2C═C(C═N2)C3═C]
Ans: < 100 nM

----------
Molecular target: JAK3 (Homo sapiens, UniProt P52333)
Sequence (P52333 1-1124): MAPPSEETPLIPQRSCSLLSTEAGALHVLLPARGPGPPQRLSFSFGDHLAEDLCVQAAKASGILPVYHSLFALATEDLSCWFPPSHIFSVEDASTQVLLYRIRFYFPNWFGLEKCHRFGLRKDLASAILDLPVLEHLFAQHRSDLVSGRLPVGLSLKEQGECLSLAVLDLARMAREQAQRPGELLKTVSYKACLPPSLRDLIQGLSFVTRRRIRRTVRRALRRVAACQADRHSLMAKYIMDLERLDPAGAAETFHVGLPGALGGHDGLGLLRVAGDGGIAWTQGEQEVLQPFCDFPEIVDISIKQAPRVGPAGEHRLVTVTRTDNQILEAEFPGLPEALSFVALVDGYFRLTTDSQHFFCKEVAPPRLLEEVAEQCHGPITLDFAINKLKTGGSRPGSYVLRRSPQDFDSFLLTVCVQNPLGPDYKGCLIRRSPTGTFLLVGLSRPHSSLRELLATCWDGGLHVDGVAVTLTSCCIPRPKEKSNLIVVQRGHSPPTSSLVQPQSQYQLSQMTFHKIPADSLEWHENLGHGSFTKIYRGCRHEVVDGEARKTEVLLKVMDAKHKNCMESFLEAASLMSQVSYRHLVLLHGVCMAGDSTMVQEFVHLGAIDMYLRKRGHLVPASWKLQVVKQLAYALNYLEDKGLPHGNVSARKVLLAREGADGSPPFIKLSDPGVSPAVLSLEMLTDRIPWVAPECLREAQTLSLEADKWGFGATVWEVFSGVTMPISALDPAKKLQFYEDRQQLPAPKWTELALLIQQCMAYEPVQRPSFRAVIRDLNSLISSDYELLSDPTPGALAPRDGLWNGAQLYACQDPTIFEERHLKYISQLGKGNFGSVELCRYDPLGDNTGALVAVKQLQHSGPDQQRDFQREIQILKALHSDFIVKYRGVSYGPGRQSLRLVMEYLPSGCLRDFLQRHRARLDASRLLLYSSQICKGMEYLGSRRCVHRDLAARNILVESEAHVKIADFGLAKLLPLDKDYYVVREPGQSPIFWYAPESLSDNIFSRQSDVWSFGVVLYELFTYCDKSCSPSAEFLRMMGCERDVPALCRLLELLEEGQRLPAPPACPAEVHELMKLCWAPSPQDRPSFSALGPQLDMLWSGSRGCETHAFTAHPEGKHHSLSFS
Test: JAK assay (KINASE-GLO luminescent kinase assay), JAK3
Format: biochemical
Settings: 10 nM JAK enzyme, 800 nM Abl peptide, room temperature 75 min
Catalogue of compounds with associated IC50

Reference set (2 entries):
{"Compound": "Cc1cc(Nc2ncc(C)c(-c3cnn(CC4(CF)CCC4)c3)n2)ccn1 [CC1═NC═CC(═C1)NC2═NC(═C]", "IC50": "< 100 nM"}
{"Compound": "Cc1cnc(Nc2cccc3c2CNC3=O)nc1-c1cnn(CC2(Cl)CC2)c1 [CC1═C(N═C(NC2═C3CNC]", "IC50": "< 1000 nM"}

Q: Reported IC50, compound Cc1ccc(Nc2ncc(C)c(-c3cnn(CC4(Cl)CC4)c3)n2)cc1S(C)(=O)=O [CC1═CC═C(NC2═NC(═C(C)C═N2)C3═C[N]] : ____
Ans: < 100 nM
